# tested on: Coagulation factor X (Homo sapiens)
# Sequence (P00742 41-179 limits assumed): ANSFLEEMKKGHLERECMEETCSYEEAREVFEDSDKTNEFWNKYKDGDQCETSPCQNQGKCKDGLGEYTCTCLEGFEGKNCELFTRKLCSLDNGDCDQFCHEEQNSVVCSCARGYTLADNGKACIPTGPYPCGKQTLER
# Sequence (P00742 235-488 limits assumed): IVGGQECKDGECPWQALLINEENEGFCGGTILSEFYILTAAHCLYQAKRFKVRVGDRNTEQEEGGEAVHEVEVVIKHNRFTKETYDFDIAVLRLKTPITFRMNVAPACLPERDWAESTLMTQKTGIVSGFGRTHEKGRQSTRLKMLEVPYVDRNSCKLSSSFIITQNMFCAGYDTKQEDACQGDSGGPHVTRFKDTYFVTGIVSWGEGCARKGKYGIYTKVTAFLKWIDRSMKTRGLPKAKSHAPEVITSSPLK
pKi: −log10 of the molar value.
Given measured pKi, output y if it is greater than or equal to 5 and n if not.

The examples below pair each entry with its known result.
N=C(N)c1cccc(C[C@H](NS(=O)(=O)c2cccc(NC(=O)CCN)c2)C(=O)N2CCN(C(=O)OCc3ccccc3)CC2)c1    n
N=C(N)c1cccc(C[C@H](NS(=O)(=O)c2cccc(NC(=O)CCN)c2)C(=O)N2CCNCC2)c1    y
CC1CCCCN1C(=O)[C@H](Cc1cccc(C(=N)N)c1)NS(=O)(=O)c1cccc(NC(=O)CCN)c1 (some centres undefined)    n

Can CNC(=O)CCC(=O)N1CCN(C(=O)[C@H](Cc2cccc(C(=N)N)c2)NS(=O)(=O)c2cccc(NC(=O)CCN)c2)CC1 be said to have pKi at or above 5?
n

Can N=C(N)c1cccc(C[C@H](NS(=O)(=O)c2cccc(NC(=O)CCN)c2)C(=O)N2CCC(CCCC(=O)O)CC2)c1 be said to have pKi at or above 5?
n

Can N=C(N)c1cccc(C[C@H](NS(=O)(=O)c2cccc(NC(=O)CCN)c2)C(=O)N2CCC(C(N)=O)CC2)c1 be said to have pKi at or above 5?
y

Can N=C(N)c1cccc(C[C@H](NS(=O)(=O)c2cccc(NC(=O)CCN)c2)C(=O)N2CCC(Cc3ccccc3)CC2)c1 be said to have pKi at or above 5?
y
